For each record, write down the corresponding pIC50.
Target: Raw264.7 p110 γ (Mus musculus)
Construct: reduction of phospho-AKT in stimulated RAW 264.7 cells; endogenous in cells
Sequence (Q9JHG7 whole entry): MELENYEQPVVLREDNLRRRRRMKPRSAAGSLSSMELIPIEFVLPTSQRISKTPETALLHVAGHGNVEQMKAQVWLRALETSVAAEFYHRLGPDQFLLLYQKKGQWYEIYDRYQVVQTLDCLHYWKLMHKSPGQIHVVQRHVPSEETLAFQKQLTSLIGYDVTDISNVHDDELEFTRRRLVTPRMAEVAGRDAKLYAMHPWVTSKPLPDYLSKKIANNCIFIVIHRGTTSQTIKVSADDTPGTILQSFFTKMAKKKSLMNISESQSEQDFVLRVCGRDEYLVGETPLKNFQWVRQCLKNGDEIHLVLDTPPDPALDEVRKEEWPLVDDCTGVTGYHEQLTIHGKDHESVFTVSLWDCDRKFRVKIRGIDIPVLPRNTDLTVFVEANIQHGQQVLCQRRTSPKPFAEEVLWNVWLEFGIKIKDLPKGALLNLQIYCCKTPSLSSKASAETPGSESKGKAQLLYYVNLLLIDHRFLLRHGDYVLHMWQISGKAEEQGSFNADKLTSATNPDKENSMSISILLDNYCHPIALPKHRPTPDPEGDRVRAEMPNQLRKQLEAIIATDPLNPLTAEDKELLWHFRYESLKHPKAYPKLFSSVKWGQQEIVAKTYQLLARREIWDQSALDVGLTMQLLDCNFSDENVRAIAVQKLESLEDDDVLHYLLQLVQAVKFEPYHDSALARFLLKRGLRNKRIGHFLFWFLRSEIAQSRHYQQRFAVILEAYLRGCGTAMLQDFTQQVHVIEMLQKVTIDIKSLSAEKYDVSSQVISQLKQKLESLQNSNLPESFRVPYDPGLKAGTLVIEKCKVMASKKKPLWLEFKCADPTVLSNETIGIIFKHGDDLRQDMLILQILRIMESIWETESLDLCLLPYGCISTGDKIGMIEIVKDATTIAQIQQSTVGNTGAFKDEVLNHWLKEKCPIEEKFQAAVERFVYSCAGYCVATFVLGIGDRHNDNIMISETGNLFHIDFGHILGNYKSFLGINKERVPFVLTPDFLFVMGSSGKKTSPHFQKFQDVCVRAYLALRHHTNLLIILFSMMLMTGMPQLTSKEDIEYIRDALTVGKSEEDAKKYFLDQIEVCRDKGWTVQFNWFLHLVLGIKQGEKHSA
Test: Raw264.7 p110 γ cellular assay (phospho-AKT)
Conditions: serum-starved RAW264.7 cells stimulated with C5a
pIC50: −log10 of the molar value.

Ask: # get_value(readout='pIC50', item= C[C@H](NC(=O)c1c(N)nn2cccnc12)c1cc2cccc(Cl)c2c(=O)n1-c1ccc(F)cc1 )
Result: > 7.00

Ask: Sample COc1cccc2cc([C@H](C)NC(=O)c3c(N)nn4cccnc34)n(-c3ccccc3)c(=O)c12 — what was its pIC50?
Result: 6.00 to 7.00

Ask: Would you mind telling me what pIC50 value was observed for CC(=O)Nc1ccc(-c2cccc3cc([C@H](C)NC(=O)c4c(N)nn5cccnc45)n(-c4ccccc4)c(=O)c23)cc1 ?
Result: > 7.00

Ask: I would be grateful if you could share the reported pIC50 for C[C@H](NC(=O)c1c(N)nn2cccnc12)c1cc2cccc(Cl)c2c(=O)n1C1CC1 .
Result: > 7.00

Ask: Given CC(C)Oc1ccc(-c2cnc(N)c(C(=O)N[C@@H](C)c3cc4cccc(Cl)c4c(=O)n3-c3ccccc3)n2)cc1F , state its recorded pIC50.
Result: 6.00 to 7.00

Ask: Param item = Cc1cc(C)n2nc(N)c(C(=O)N[C@@H](C)c3cc4cccc(Cl)c4c(=O)n3-c3ccccc3)c2n1 ; retrieve measured pIC50.
Result: > 7.00

Ask: Given the entry C[C@H](NC(=O)c1nc(-c2cccc(S(N)(=O)=O)c2)cnc1N)c1cc2cccc(Cl)c2c(=O)n1-c1ccccc1 , report its measured pIC50.
Result: > 7.00

Ask: For C[C@H](NC(=O)c1nc(-c2cccc(NS(C)(=O)=O)c2)cnc1N)c1cc2cccc(Cl)c2c(=O)n1-c1ccccc1 , what is its reported pIC50?
Result: > 7.00

Ask: // returns reported pIC50 for input C[C@H](NC(=O)c1nc(-c2cccc(NS(C)(=O)=O)c2)cnc1N)c1cc2cccc(Cl)c2c(=O)n1C1CC1
Result: > 7.00

Ask: // returns reported pIC50 for input C[C@H](NC(=O)c1nc(-c2cccc(NS(=O)(=O)N(C)C)c2)cnc1N)c1cc2cccc(Cl)c2c(=O)n1-c1ccccc1
Result: > 7.00

Ask: Using the record for C[C@H](NC(=O)c1nc(-c2cncc(NS(C)(=O)=O)c2)cnc1N)c1cc2cccc(Cl)c2c(=O)n1-c1ccccc1 , report its pIC50.
Result: > 7.00

Ask: So what does the record say about pIC50 for C[C@H](NC(=O)c1c(N)nn2cccnc12)c1cc2scc(-c3cnn(C)c3)c2c(=O)n1-c1ccccc1 ?
Result: 6.00 to 7.00

Ask: Please give the measured pIC50 for this molecule: C[C@H](NC(=O)c1c(N)nn2cccnc12)c1cc2cccc(N3CCOCC3)c2c(=O)n1-c1ccccc1
Result: 6.00 to 7.00

Ask: Requested field: pIC50. Item: CC(C)Oc1cc(-c2cccc3nc([C@H](C)NC(=O)c4c(N)nn5cccnc45)n(-c4ccccc4)c(=O)c23)ccn1
Result: > 7.00

src = patent US8940742B2
